Field: Kd. Provide a value for each of the molecules that follow.
molecular target: Influenza A virus M2 proton channel (A/TW/4845/1999 H1N1); experiment: M2 proton channel binding, NMR based, influenza A virus H1N1 strain (AID 1549); settings: NMR binding screen, M2 protein
Activity calls are given as the source filed them. How the calls were made is not given here.

Below are worked cases with known answers.
molecule="COC[C@]12CN(C=O)C3[C@@H]4[C@H](OC)C1[C@]3(C1CC3(O)C(OC)C(O)C4(OC(C)=O)C1C3OC(=O)c1ccccc1)[C@@H](OC)C[C@H]2O (stereo partly specified)" readout_kind=Kd experimental_value="> 4 mM (inactive)"
molecule=COc1ccc(-c2noc(-c3ccco3)n2)cc1OC readout_kind=Kd experimental_value="> 4 mM (inactive)"
molecule=O=C(NCC1CCNCC1)c1ccccn1 readout_kind=Kd experimental_value="> 4 mM (inactive)"
molecule=O=S(=O)(Nc1ccc2c(c1)OCCO2)c1cccs1 readout_kind=Kd experimental_value="> 4 mM (inactive)"
molecule=Cc1c(C(=O)NCc2ccccn2)oc2ccccc12 readout_kind=Kd experimental_value="> 4 mM (inactive)"

Working through the 7 molecules below one at a time, give Kd for each.
1. c1ccc(Cc2nn3c(-c4ccncc4)nnc3s2)cc1
2. CC(O)C(=O)N/N=C/c1ccccc1 (stereo unspecified)
3. COc1c(F)c(F)c(-c2csc(N)n2)c(F)c1F
4. CC(=O)O[C@@H]1CC2C(C)(C)CCC(=O)[C@]2(C)C2CC[C@@]3(C)[C@H](c4ccoc4)OC(=O)C4OC43[C@@]21C (stereo partly specified)
5. CC(=O)NC(=S)Nc1ccccc1N1CCOCC1
6. CC(C)C1COc2cc3oc(=O)ccc3cc2O1 (stereo unspecified)
7. N=c1n(N)c2ccccc2n1CCO

## Result
> 4 mM (inactive)
> 4 mM (inactive)
> 4 mM (inactive)
> 4 mM (inactive)
> 4 mM (inactive)
> 4 mM (inactive)
> 4 mM (inactive)

Parameter requested: Kd. Apply to each item below.
1. Cc1ccc(C(C)C)cc2c(C)ccc1-2
2. CNC(=O)Cn1c(=O)n(C)c2ccccc21
3. O=C(O)c1cc2ccccc2[nH]1
4. N#CCc1nc2ccccc2s1
5. O=c1[nH]cnc2c1nnn2Cc1ccccc1

## Result
["> 4 mM (inactive)", "> 4 mM (inactive)", "> 4 mM (inactive)", "> 4 mM (inactive)", "> 4 mM (inactive)"]

For each entry beneath this line, provide reported Kd.
1. CN1CCN(c2ccc(N)cc2)CC1
2. O=c1c2ccccc2nc2n1CCCCN2

## Result
1. > 4 mM (inactive)
2. > 4 mM (inactive)

Parameter requested: Kd. Apply to each item below.
1. O=C(c1ccco1)N1CCCN(C(=O)c2ccco2)CC1
2. O=C(O)c1cc(O)c(O)c(O)c1

## Result
["> 4 mM (inactive)", "> 4 mM (inactive)"]

###

Hi there, I'd appreciate the recorded Kd for every entry that follows.
biological target: Influenza A virus M2 proton channel (A/TW/4845/1999 H1N1); assay: M2 proton channel binding, NMR based, influenza A virus H1N1 strain (AID 1549); settings: NMR binding screen, M2 protein
Activity calls are given as the source filed them. How the calls were made is not given here.

compound="CN1CCC(N2CCCC(C(N)=O)C2)CC1 (configuration not stated)" assayed_target="Influenza A virus M2 proton channel (A/TW/4845/1999 H1N1)" experimental_value="> 4 mM (inactive)"

Count: 3. Required value per item: Kd.
1. Cc1cc(O)c(C=O)c(O)c1C(=O)O
2. CS(=O)(=O)c1nncn1-c1ccccc1
3. S=C(NC1CC1)NN1CCOCC1

## Result
["> 4 mM (inactive)", "> 4 mM (inactive)", "> 4 mM (inactive)"]
